Listing of recorded Autosampler (24h, 4°C) Accuracy [%] by entry.
Test: Autosampler stability of ready for injection samples
Type: physicochemical, human
Details: validation standard LLOV
Please respond with the number in % and leave the unit unwritten.

The following compounds have reported results that may help.
CNC(=O)c1cc(Oc2ccc(NC(=O)Nc3ccc(Cl)c(C(F)(F)F)c3)cc2)ccn1 ... 112.0
CCc1cc2c(cc1N1CCC(N3CCOCC3)CC1)C(C)(C)c1[nH]c3cc(C#N)ccc3c1C2=O ... 91.8
CN(C)C(=O)c1cc2cnc(Nc3ccc(N4CCNCC4)cn3)nc2n1C1CCCC1 ... 84.0

Query: Sample COc1cc2ncnc(Nc3ccc(F)c(Cl)c3)c2cc1OCCCN1CCOCC1 — what was its Autosampler (24h, 4°C) Accuracy [%]?
Result: 91.6

----------
Test: Freeze-thaw stability in spiked pooled human plasma
Type: physicochemical
Details: validation standard 2xLLOV
Assay Readout: Freeze-Thaw Accuracy [%] (%)
Please respond with the number in % and leave the unit unwritten.

Query: Sample COc1cc(Nc2c(C#N)cnc3cc(OCCCN4CCN(C)CC4)c(OC)cc23)c(Cl)cc1Cl [Bosutinib] — what was its Freeze-Thaw Accuracy [%]?
Result: 89.9

Query: Sample CNC(=O)c1ccc(N2C(=S)N(c3cnc(C#N)c(C(F)(F)F)c3)C(=O)C23CCC3)cc1F [Apalutamide] — what was its Freeze-Thaw Accuracy [%]?
Result: 95.6

Query: Sample CC1(C)CCC(CN2CCN(c3ccc(C(=O)NS(=O)(=O)c4ccc(NCC5CCOCC5)c([N+](=O)[O-])c4)c(Oc4cnc5[nH]ccc5c4)c3)CC2)=C(c2ccc(Cl)cc2)C1 [Venetoclax] — what was its Freeze-Thaw Accuracy [%]?
Result: 102.4

Query: Sample CS(=O)(=O)CCNCc1ccc(-c2ccc3ncnc(Nc4ccc(OCc5cccc(F)c5)c(Cl)c4)c3c2)o1 [Lapatinib] — what was its Freeze-Thaw Accuracy [%]?
Result: 96.0

Query: Sample O=C1CN2Cc3c(ccc(Cl)c3Cl)N=C2N1 [Anagrelide] — what was its Freeze-Thaw Accuracy [%]?
Result: 96.5

Query: Sample O=C(Nc1cnn2ccc(N3CCC[C@@H]3c3cc(F)ccc3F)nc12)N1CC[C@H](O)C1 [Larotrectinib] — what was its Freeze-Thaw Accuracy [%]?
Result: 100.6

Query: Sample COc1cc2ncnc(Nc3ccc(F)c(Cl)c3)c2cc1NC(=O)/C=C/CN1CCCCC1 [Dacomitinib] — what was its Freeze-Thaw Accuracy [%]?
Result: 92.5

Query: Sample C=CC(=O)N1CCC[C@@H](n2nc(-c3ccc(Oc4ccccc4)cc3)c3c(N)ncnc32)C1 [Ibrutinib] — what was its Freeze-Thaw Accuracy [%]?
Result: 100.8

Query: Sample CCN1CCN(Cc2ccc(Nc3ncc(F)c(-c4cc(F)c5nc(C)n(C(C)C)c5c4)n3)nc2)CC1 [Abemaciclib] — what was its Freeze-Thaw Accuracy [%]?
Result: 96.4

----------
Test: Long-term stability in spiked pooled human plasma
Details: validation standard MOV
Assay Readout: Long-term stability, 2 month, -80°C Accuracy [%] (%)
Please respond with the number in % and leave the unit unwritten.

The following compounds have reported results that may help.
O=C1CCC(N2C(=O)c3ccccc3C2=O)C(=O)N1 (centres unmarked) [Thalidomide] ... 77.9
CCN1CCN(Cc2ccc(Nc3ncc(F)c(-c4cc(F)c5nc(C)n(C(C)C)c5c4)n3)nc2)CC1 ... 105.5
C=CC(=O)Nc1cc(Nc2nccc(-c3cn(C)c4ccccc34)n2)c(OC)cc1N(C)CCN(C)C ... 101.6
O=C(c1cc(Cc2n[nH]c(=O)c3ccccc23)ccc1F)N1CCN(C(=O)C2CC2)CC1 ... 96.8

Query: Sample COc1cc2nccc(Oc3ccc(NC(=O)NC4CC4)c(Cl)c3)c2cc1C(N)=O — what was its Long-term stability, 2 month, -80°C Accuracy [%]?
Result: 97.2

----------
Test: Long-term stability in spiked pooled human plasma
Details: validation standard MOV
Listing of recorded Long-term stability, 6 weeks, 4°C, without daylight Accuracy [%] by entry.
Please respond with the number in % and leave the unit unwritten.

The following molecules have reported results that may help.
COC(=O)N[C@@H](C)CNc1nccc(-c2cn(C(C)C)nc2-c2cc(Cl)cc(NS(C)(=O)=O)c2F)n1 ... 109.2
O=C(c1cc(Cc2n[nH]c(=O)c3ccccc23)ccc1F)N1CCN(C(=O)C2CC2)CC1 ... 107.5
Cc1[nH]c2ccccc2c1CCNCc1ccc(/C=C/C(=O)NO)cc1 ... 67.6
C[C@@H](Oc1cc(-c2cnn(C3CCNCC3)c2)cnc1N)c1c(Cl)ccc(F)c1Cl ... 93.4

Query: Sample C=CC(=O)Nc1cc(Nc2nccc(-c3cn(C)c4ccccc34)n2)c(OC)cc1N(C)CCN(C)C — what was its Long-term stability, 6 weeks, 4°C, without daylight Accuracy [%]?
Result: 53.4

Query: Sample C[C@H]1Oc2cc(cnc2N)-c2c(nn(C)c2C#N)CN(C)C(=O)c2ccc(F)cc21 — what was its Long-term stability, 6 weeks, 4°C, without daylight Accuracy [%]?
Result: 93.7

Query: Sample CC1(C)CCC(CN2CCN(c3ccc(C(=O)NS(=O)(=O)c4ccc(NCC5CCOCC5)c([N+](=O)[O-])c4)c(Oc4cnc5[nH]ccc5c4)c3)CC2)=C(c2ccc(Cl)cc2)C1 — what was its Long-term stability, 6 weeks, 4°C, without daylight Accuracy [%]?
Result: 99.5

Query: Sample CN(C)C/C=C/C(=O)Nc1cc2c(Nc3ccc(F)c(Cl)c3)ncnc2cc1O[C@H]1CCOC1 — what was its Long-term stability, 6 weeks, 4°C, without daylight Accuracy [%]?
Result: 44.2

Query: Sample Cn1cnc2c(F)c(Nc3ccc(Br)cc3F)c(C(=O)NOCCO)cc21 — what was its Long-term stability, 6 weeks, 4°C, without daylight Accuracy [%]?
Result: 109.9

----------
Test: Long-term stability in spiked pooled human plasma
Details: validation standard ULOV
Listing of recorded Long-term stability, 2 month, -80°C Accuracy [%] by entry.
Please respond with the number in % and leave the unit unwritten.

C=CC(=O)Nc1cc(Nc2nccc(-c3cn(C)c4ccccc34)n2)c(OC)cc1N(C)CCN(C)C [Osimertinib] ... 101.4
Cc1c(C(=O)Nc2ccc(N3C[C@@H](C)O[C@@H](C)C3)nc2)cccc1-c1ccc(OC(F)(F)F)cc1 [Sonidegib] ... 122.3
COc1cc2nccc(Oc3ccc(NC(=O)NC4CC4)c(Cl)c3)c2cc1C(N)=O [Lenvatinib] ... 101.9

Query: Sample Cc1nc(Nc2ncc(C(=O)Nc3c(C)cccc3Cl)s2)cc(N2CCN(CCO)CC2)n1 [Dasatinib] — what was its Long-term stability, 2 month, -80°C Accuracy [%]?
Result: 100.4

Query: Sample COc1cc2nccc(Oc3ccc(NC(=O)C4(C(=O)Nc5ccc(F)cc5)CC4)cc3)c2cc1OC [Cabozantinib] — what was its Long-term stability, 2 month, -80°C Accuracy [%]?
Result: 100.3

Query: Sample COc1cc2nccc(Oc3ccc(NC(=O)Nc4cc(C)on4)c(Cl)c3)c2cc1OC [Tivozanib] — what was its Long-term stability, 2 month, -80°C Accuracy [%]?
Result: 100.3

Query: Sample CS(=O)(=O)c1ccc(C(=O)Nc2ccc(Cl)c(-c3ccccn3)c2)c(Cl)c1 [Vismodegib] — what was its Long-term stability, 2 month, -80°C Accuracy [%]?
Result: 95.1

Query: Sample CS(=O)(=O)CCNCc1ccc(-c2ccc3ncnc(Nc4ccc(OCc5cccc(F)c5)c(Cl)c4)c3c2)o1 [Lapatinib] — what was its Long-term stability, 2 month, -80°C Accuracy [%]?
Result: 100.9

----------
Test: Long-term stability in spiked pooled human plasma
Details: validation standard MOV
Listing of recorded Long-term stability, 3 month, -20°C Accuracy [%] by entry.
Please respond with the number in % and leave the unit unwritten.

The following compounds have reported results that may help.
C[C@]12CC[C@H](O)CC1=CC[C@@H]1[C@@H]2CC[C@]2(C)C(c3cccnc3)=CC[C@@H]12 ... 101.8
O=C(Nc1cnn2ccc(N3CCC[C@@H]3c3cc(F)ccc3F)nc12)N1CC[C@H](O)C1 ... 96.2
Cc1ccc(Nc2nccc(N(C)c3ccc4c(C)n(C)nc4c3)n2)cc1S(N)(=O)=O ... 103.3

Attention now turns to another entry.
Query: Sample CS(=O)(=O)c1ccc(C(=O)Nc2ccc(Cl)c(-c3ccccn3)c2)c(Cl)c1 — what was its Long-term stability, 3 month, -20°C Accuracy [%]?
Result: 101.3

----------
Test: Long-term stability in spiked pooled human plasma
Details: validation standard 2xLLOV
Listing of recorded Long-term stability, 2 month, -20°C Accuracy [%] by entry.
Please respond with the number in % and leave the unit unwritten.

The following compounds have reported results that may help.
CS(=O)(=O)CCNCc1ccc(-c2ccc3ncnc(Nc4ccc(OCc5cccc(F)c5)c(Cl)c4)c3c2)o1 ... 84.4
O=C(c1cc(Cc2n[nH]c(=O)c3ccccc23)ccc1F)N1CCN(C(=O)C2CC2)CC1 ... 103.8
CC(C)(C)c1nc(-c2cccc(NS(=O)(=O)c3c(F)cccc3F)c2F)c(-c2ccnc(N)n2)s1 ... 98.6
CS(=O)(=O)c1ccc(C(=O)Nc2ccc(Cl)c(-c3ccccn3)c2)c(Cl)c1 ... 106.5

Query: Sample C#Cc1cccc(Nc2ncnc3cc(OCCOC)c(OCCOC)cc23)c1 — what was its Long-term stability, 2 month, -20°C Accuracy [%]?
Result: 106.4

Query: Sample O=c1[nH]c(=O)n([C@H]2C[C@H](O)[C@@H](CO)O2)cc1C(F)(F)F — what was its Long-term stability, 2 month, -20°C Accuracy [%]?
Result: 107.3

Query: Sample CCC1=C[C@@H]2CN(C1)Cc1c([nH]c3ccccc13)[C@@](C(=O)OC)(c1cc3c(cc1OC)N(C)[C@H]1[C@@](O)(C(=O)OC)[C@H](OC(C)=O)[C@]4(CC)C=CCN5CC[C@]31[C@@H]54)C2 — what was its Long-term stability, 2 month, -20°C Accuracy [%]?
Result: 108.5

Query: Sample C[C@@H](Oc1cc(-c2cnn(C3CCNCC3)c2)cnc1N)c1c(Cl)ccc(F)c1Cl — what was its Long-term stability, 2 month, -20°C Accuracy [%]?
Result: 90.8

Query: Sample CCOc1cc2ncc(C#N)c(Nc3ccc(OCc4ccccn4)c(Cl)c3)c2cc1NC(=O)/C=C/CN(C)C — what was its Long-term stability, 2 month, -20°C Accuracy [%]?
Result: 67.5

Query: Sample CC(=O)Nc1cccc(-n2c(=O)n(C3CC3)c(=O)c3c(Nc4ccc(I)cc4F)n(C)c(=O)c(C)c32)c1 — what was its Long-term stability, 2 month, -20°C Accuracy [%]?
Result: 123.9
